- Test system: BXPC-3
- EXPERIMENT SUMMARY: Antiproliferative activity against human BXPC-3 cells assessed as inhibition of cell growth incubated for 72 hrs by CCK-8 assay
- Assay type: functional, cell-based
- RUN PARAMETERS: BXPC-3, 72 h
ENDPOINT: pIC50
Expect pIC50 as a plain number equal to -log10 of the molar concentration.

Task item: Please look at this molecule and report its pIC50: C#CCN(Cc1ccc(S(=O)(=O)N(C)C#C)cc1)c1ccc(-c2nc3ccccc3s2)cc1
Reply: 7.70

----------
- System: ASPC1
- EXPERIMENT SUMMARY: Induction of ferroptosis in human ASPC1 cells assessed as reduction in cell viability incubated for 24 hrs followed by compound washout by CCK-8 assay
- Format: functional, cell-based
- RUN PARAMETERS: ASPC1, 24 h
ENDPOINT: pIC50
Expect pIC50 as a plain number equal to -log10 of the molar concentration.

Task item: Please look at this molecule and report its pIC50: C#CCN(Cc1ccc(S(=O)(=O)N(C)C#C)cc1)c1ccc(-c2nc3ccccc3s2)cc1
Reply: 7.21

----------
- EXPERIMENT SUMMARY: Cmax in Sprague-Dawley rat at 2 mg/kg, iv measured upto 48 hrs by LC-MS/MS analysis
- Assay type: ADME, organism-based
- RUN PARAMETERS: in vivo
ENDPOINT: Cmax (ng/mL)
Hi! Could you send only the number? It should be in ng/mL, unit omitted.

Task item: Please look at this compound and report its Cmax: C#CCN(Cc1ccc(S(=O)(=O)N(C)C#C)cc1)c1ccc(-c2nc3ccccc3s2)cc1
Reply: 2250

----------
- Test system: ASPC1
- EXPERIMENT SUMMARY: Induction of ferroptosis in human ASPC1 cells assessed as reduction in cell viability incubated for 48 hrs followed by compound washout by CCK-8 assay
- Assay type: functional, cell-based
- RUN PARAMETERS: ASPC1, 48 h
ENDPOINT: IC50 (nM)
Hi! Could you send only the number? It should be in nM, unit omitted.

Task item: Please look at this molecule and report its IC50: C#CCN(Cc1ccc(S(=O)(=O)N(C)C#C)cc1)c1ccc(-c2nc3ccccc3s2)cc1
Reply: 33

----------
- Test system: ASPC1
- EXPERIMENT SUMMARY: Induction of ferroptosis in human ASPC1 cells assessed as reduction in cell viability incubated for 72 hrs followed by compound washout by CCK-8 assay
- Assay type: functional, cell-based
- RUN PARAMETERS: ASPC1, 72 h
ENDPOINT: IC50
Write the numeric value and follow it with the unit.

Task item: Please look at this compound and report its IC50: C#CCN(Cc1ccc(S(=O)(=O)N(C)C#C)cc1)c1ccc(-c2nc3ccccc3s2)cc1
Reply: 29 nM

----------
- Test system: ASPC1
- EXPERIMENT SUMMARY: Induction of ferroptosis in human ASPC1 cells assessed as reduction in cell viability incubated for 48 hrs by CCK-8 assay
- Format: functional, cell-based
- RUN PARAMETERS: ASPC1, 48 h
ENDPOINT: pIC50
Expect pIC50 as a plain number equal to -log10 of the molar concentration.

Task item: Please look at this molecule and report its pIC50: C#CCN(Cc1ccc(S(=O)(=O)N(C)C#C)cc1)c1ccc(-c2nc3ccccc3s2)cc1
Reply: 7.59

----------
- Test system: NCI-H522
- EXPERIMENT SUMMARY: Induction of ferroptosis in human NCI-H522 cells assessed as reduction in cell viability incubated for 72 hrs by CCK-8 assay
- Type: functional, cell-based
- RUN PARAMETERS: NCI-H522, 72 h
ENDPOINT: IC50 (nM)
Hi! Could you send only the number? It should be in nM, unit omitted.

Task item: Please look at this molecule and report its IC50: C#CCN(Cc1ccc(S(=O)(=O)N(C)C#C)cc1)c1ccc(-c2nc3ccccc3s2)cc1
Reply: 3

Task item: Please look at this molecule and report its IC50: COc1ccc(N(C(=O)CCl)C(C(=O)NCCc2ccccc2)c2cccs2)cc1Cl (stereo not drawn)
Reply: 14

Task item: Please look at this molecule and report its IC50: Cc1onc(C(=O)N2CCN(C(c3ccc(Cl)cc3)c3ccc(Cl)cc3)CC2)c1[N+](=O)[O-]
Reply: 33
